- tested target: T1, human APJ receptor (human, UniProt P35414 1-380)
- T1 sequence (looked up): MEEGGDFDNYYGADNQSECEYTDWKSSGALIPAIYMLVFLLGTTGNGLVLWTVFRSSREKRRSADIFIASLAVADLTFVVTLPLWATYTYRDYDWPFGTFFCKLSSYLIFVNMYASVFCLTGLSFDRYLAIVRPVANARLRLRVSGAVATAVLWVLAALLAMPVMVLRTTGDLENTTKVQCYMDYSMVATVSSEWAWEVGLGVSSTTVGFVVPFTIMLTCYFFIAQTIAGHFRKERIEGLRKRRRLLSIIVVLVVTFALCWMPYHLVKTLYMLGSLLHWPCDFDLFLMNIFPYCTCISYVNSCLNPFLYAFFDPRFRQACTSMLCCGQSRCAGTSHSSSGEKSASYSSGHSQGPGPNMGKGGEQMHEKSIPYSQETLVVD
- protocol summary: cell-based or functional assay
Simple rule here: EC50 Human APJ Receptor less than 0.3 nM is label 1, otherwise label 0.

Consider the following illustrative entries.
binder	group
XXXQRPRLSHKGPXPF ({PDA}[AC4Abu][Aeea][Aeea]QRP[NMeArg]LSHKGP[Nle]P[4-Cl-F]{COOH}) [SEQ ID NO: 495]	label 1
XXXQRPRLSHKGPXPF ({hexanoyl}[AC4Abu][Aeea][Aeea]QRP[NMeArg]LSHKGP[Nle]P[4-Cl-F]{COOH}) [SEQ ID NO: 492]	label 1
XXXQRPRLSHKGPXPF ({pIFBu}[AC4Abu][Aeea][Aeea]QRP[NMeArg]LSHKGP[Nle]P[4-Cl-F]{COOH}) [SEQ ID NO: 118]	label 1
H-KFRRQRPRLSHKGPMP-OH [SEQ ID NO: 12]	label 0
XXXQRPRLSHKGPXPF ({Dodecanoyl-NH}[AC4Abu][Aeea][Aeea]QRP[NMeArg]LSHKGP[Nle]P[4-Cl-F]{COOH}) [SEQ ID NO: 591]	label 0

Task: I wonder whether SDFYKRLINKAKXXRRQRPRLSHKGXFPX ({Acetyl-NH}SDFYKRLINKAK[Aeea][Aeea][hArg]rQ[hArg]Pr[NMeLeu]SHKG[Oic][pI-Phe]P[D-Bip]{COOH}) [SEQ ID NO: 94] has EC50 Human APJ Receptor below 0.3 nM. Can you tell?
Output: label 0
